Measured pIC50 of individual entries
procedure_details: Inhibition of recombinant Escherichia coli topoisomerase 1a expressed in Escherichia coli assessed as reduction in enzyme-mediated relaxation of supercoiled pBAD/Thio DNA preincubated with enzyme followed by substrate addition measured after 30 mins by ethidium bromide staining based agarose gel electrophoresis method
Please report pIC50 as the negative decimal logarithm of the molar concentration, giving only the number.

Consider the reported pIC50 for these molecules:
[
  {
    "smiles": "Nc1ccc2c(c1)Oc1c(N3CCC(N4CCCCC4)CC3)c(F)cc3c(=O)c(C(=O)O)cn-2c13",
    "observed_result": 6.32
  },
  {
    "smiles": "Nc1ccc2c(c1)Oc1c(N3CCNCC3)c(F)cc3c(=O)c(C(=O)O)cn-2c13",
    "observed_result": 6.62
  },
  {
    "smiles": "CN1CCN(c2c(F)cc3c(=O)c(C(=O)O)cn4c3c2Oc2cc([N+](=O)[O-])ccc2-4)CC1",
    "observed_result": 5.71
  },
  {
    "smiles": "O=C(O)c1cn2c3c(c(N4CCNCC4)c(F)cc3c1=O)Oc1cc([N+](=O)[O-])ccc1-2",
    "observed_result": 5.41
  }
]

Incoming: Look at this molecule and give its reported pIC50. `CC1CCN(c2c(F)cc3c(=O)c(C(=O)O)cn4c3c2Oc2cc(N)ccc2-4)CC1`
Outgoing: 5.41

Incoming: What do you have for `CCCCCCNc1c(F)cc2c(=O)c(C(=O)O)cn3c2c1Oc1cc(N)ccc1-3` ?
Outgoing: 4.81

Incoming: What do you have for `CCOC(=O)c1cn2c3c(c(F)c(F)cc3c1=O)Oc1cc([N+](=O)[O-])ccc1-2` ?
Outgoing: 4.81

----------
procedure_details: Inhibition of recombinant Escherichia coli topoisomerase 1a expressed in Escherichia coli assessed as reduction in enzyme-mediated relaxation of supercoiled pBAD/Thio DNA preincubated with enzyme followed by substrate addition measured after 30 mins by ethidium bromide staining based agarose gel electrophoresis method
Measured IC50 of individual entries
// units = µM; emit number, no label

Consider the reported IC50 for these molecules:
[
  {
    "smiles": "CC(=O)Nc1ccc2c(c1)Oc1c(F)c(F)cc3c(=O)c(C(=O)O)cn-2c13",
    "observed_result": 7.8
  },
  {
    "smiles": "CC(=O)c1ccc2c(c1)Oc1c(F)c(F)cc3c(=O)c(C(=O)O)cn-2c13",
    "observed_result": 15.6
  },
  {
    "smiles": "Nc1ccc2c(c1)Oc1c(NC3CCCC3)c(F)cc3c(=O)c(C(=O)O)cn-2c13",
    "observed_result": 3.9
  },
  {
    "smiles": "Nc1ccc2c(c1)Oc1c(NCCc3ccccc3)c(F)cc3c(=O)c(C(=O)O)cn-2c13",
    "observed_result": 3.9
  },
  {
    "smiles": "N#Cc1ccc2c(c1)Oc1c(F)c(F)cc3c(=O)c(C(=O)O)cn-2c13",
    "observed_result": 31.2
  },
  {
    "smiles": "Nc1ccc2c(c1)Oc1c(NC3CCCCC3)c(F)cc3c(=O)c(C(=O)O)cn-2c13",
    "observed_result": 3.9
  }
]

Then there is this molecule:
Incoming: Look at this molecule and give its reported IC50. `O=C(O)c1cn2c3c(c(F)c(F)cc3c1=O)Oc1cc([N+](=O)[O-])c(Cl)cc1-2`
Outgoing: 31.2

----------
Measured MIC of individual entries
Test system: Bacillus spizizenii
procedure_details: Antibacterial activity against Bacillus subtilis ATCC 6633 by microdilution method
Type: functional

[
  {
    "smiles": "Nc1ccc2c(c1)Oc1c(NCCc3ccccc3)c(F)cc3c(=O)c(C(=O)O)cn-2c13",
    "MIC": "25 to 50 µM"
  }
]

Incoming: Find MIC (Bacillus spizizenii) for the entry `O=C(O)c1cn2c3c(c(N4CCNCC4)c(F)cc3c1=O)Oc1cc([N+](=O)[O-])ccc1-2`
Outgoing: > 200 µM

Incoming: What do you have for `CCOC(=O)c1cn2c3c(c(F)c(F)cc3c1=O)Oc1cc(C#N)ccc1-2` ?
Outgoing: 200 µM

Incoming: What do you have for `Nc1ccc2c(c1)Oc1c(NC34CC5CC(CC(C5)C3)C4)c(F)cc3c(=O)c(C(=O)O)cn-2c13` ?
Outgoing: 12.5 µM

Incoming: What do you have for `CCCCCCNc1c(F)cc2c(=O)c(C(=O)O)cn3c2c1Oc1cc(N)ccc1-3` ?
Outgoing: > 200 µM

Incoming: What do you have for `Nc1ccc2c(c1)Oc1c(N3CC[C@H](N)C3)c(F)cc3c(=O)c(C(=O)O)cn-2c13` ?
Outgoing: 6.25 µM

----------
System: Bacillus spizizenii
procedure_details: Antibacterial activity against Bacillus subtilis ATCC 6633 by microdilution method
Type: functional
Measured MIC of individual entries
// units = µM; emit number, no label

Consider the reported MIC for these compounds:
[
  {
    "smiles": "Nc1ccc2c(c1)Oc1c(N3CCOCC3)c(F)cc3c(=O)c(C(=O)O)cn-2c13",
    "target_or_system": "Bacillus spizizenii",
    "measured_metric": "MIC",
    "units": "µM",
    "observed_result": 0.19
  },
  {
    "smiles": "O=C(O)c1cn2c3c(c(F)c(F)cc3c1=O)Oc1cc([N+](=O)[O-])ccc1-2",
    "target_or_system": "Bacillus spizizenii",
    "measured_metric": "MIC",
    "units": "µM",
    "observed_result": 12.5
  },
  {
    "smiles": "CCOC(=O)c1cn2c3c(c(N4CCN(C)CC4)c(F)cc3c1=O)Oc1cc([N+](=O)[O-])ccc1-2",
    "target_or_system": "Bacillus spizizenii",
    "measured_metric": "MIC",
    "units": "µM",
    "observed_result": 50
  },
  {
    "smiles": "CC1CCN(c2c(F)cc3c(=O)c(C(=O)O)cn4c3c2Oc2cc(N)ccc2-4)CC1",
    "target_or_system": "Bacillus spizizenii",
    "measured_metric": "MIC",
    "units": "µM",
    "observed_result": 0.78
  },
  {
    "smiles": "N[C@H]1CCN(c2c(F)cc3c(=O)c(C(=O)O)cn4c3c2Oc2cc([N+](=O)[O-])ccc2-4)C1",
    "target_or_system": "Bacillus spizizenii",
    "measured_metric": "MIC",
    "units": "µM",
    "observed_result": 0.78
  }
]

Incoming: Look at this compound and give its reported MIC. `O=C(O)c1cn2c3c(c(F)c(F)cc3c1=O)Oc1cc([N+](=O)[O-])c(Cl)cc1-2`
Outgoing: 3.12

Incoming: What do you have for `Nc1ccc2c(c1)Oc1c(NC3CCCCC3)c(F)cc3c(=O)c(C(=O)O)cn-2c13` ?
Outgoing: 12.5

Incoming: What do you have for `Nc1ccc2c(c1)Oc1c(N3CC[C@@H](N)C3)c(F)cc3c(=O)c(C(=O)O)cn-2c13` ?
Outgoing: 12.5

Incoming: What do you have for `Nc1ccc2c(c1)Oc1c(NC3CCCC3)c(F)cc3c(=O)c(C(=O)O)cn-2c13` ?
Outgoing: 12.5

Incoming: What do you have for `CN1CCN(c2c(F)cc3c(=O)c(C(=O)O)cn4c3c2Oc2cc([N+](=O)[O-])ccc2-4)CC1` ?
Outgoing: 0.78

Incoming: What do you have for `Nc1ccc2c(c1)Oc1c(N3CCC(N4CCCCC4)CC3)c(F)cc3c(=O)c(C(=O)O)cn-2c13` ?
Outgoing: 1.56

Incoming: What do you have for `CCOC(=O)c1cn2c3c(c(F)c(F)cc3c1=O)Oc1cc([N+](=O)[O-])ccc1-2` ?
Outgoing: 25

----------
Measured pIC50 of individual entries
procedure_details: Inhibition of human topoisomerase type 1B assessed as reduction in enzyme-mediated relaxation of supercoiled pBAD/Thio DNA after 30 mins by agarose gel electrophoresis method
Please report pIC50 as the negative decimal logarithm of the molar concentration, giving only the number.

[
  {
    "smiles": "Nc1ccc2c(c1)Oc1c(N3CCC(N4CCCCC4)CC3)c(F)cc3c(=O)c(C(=O)O)cn-2c13",
    "pIC50": 5.41
  }
]

Then there is this compound:
Incoming: Look at this compound and give its reported pIC50. `O=C(O)c1cn2c3c(c(F)c(F)cc3c1=O)Oc1cc([N+](=O)[O-])c(Cl)cc1-2`
Outgoing: 4.51

----------
Measured IC50 of individual entries
procedure_details: Inhibition of recombinant Escherichia coli DNA gyrase expressed in Escherichia coli assessed as reduction in enzyme-mediated supercoiling of relaxed circular DNA preincubated with enzyme followed by substrate addition measured after 30 mins by agarose gel electrophoresis method

Consider the reported IC50 for these molecules:
[
  {
    "smiles": "Nc1ccc2c(c1)Oc1c(NCCN3CCOCC3)c(F)cc3c(=O)c(C(=O)O)cn-2c13",
    "IC50": "15.6 to 31.2 µM"
  },
  {
    "smiles": "Nc1ccc2c(c1)Oc1c(N3CCNCC3)c(F)cc3c(=O)c(C(=O)O)cn-2c13",
    "IC50": "7.8 to 15.6 µM"
  },
  {
    "smiles": "CN1CCN(c2c(F)cc3c(=O)c(C(=O)O)cn4c3c2Oc2cc(N)ccc2-4)CC1",
    "IC50": "15.6 to 31.2 µM"
  },
  {
    "smiles": "Nc1ccc2c(c1)Oc1c(F)c(F)cc3c(=O)c(C(=O)O)cn-2c13",
    "IC50": "> 125 µM"
  }
]

Incoming: Look at this molecule and give its reported IC50. `CN1CCN(c2c(F)cc3c(=O)c(C(=O)O)cn4c3c2Oc2cc([N+](=O)[O-])ccc2-4)CC1`
Outgoing: 62.5 to 125 µM
